These measurements were taken from ChEMBL document CHEMBL4689842.

Test system: U2OS
Test: Multiplex assay against U2OS
Format: toxicity, cell-based
Details: human, 24 h, 1 µM, compound concentration 1 uM, replicate 2
Outcome label depends on Population Mitotic Cells (%) relative to 60%: at/above gives fulfilled, below gives not fulfilled.

input: Check the entry CN1CCN(CCOc2cc(OC3CCOCC3)c3c(Nc4c(Cl)ccc5c4OCO5)ncnc3c2)CC1 : does Population Mitotic Cells (%) equal or exceed 60%?
output: not fulfilled

input: Check the entry Cn1cc(-c2[nH]c3cc(NC(=O)[C@H](N)C4CCCCC4)cc4c3c2C=NNC4=O)cn1 : does Population Mitotic Cells (%) equal or exceed 60%?
output: not fulfilled

input: Check the entry CC(C)NCC(O)COc1ccc(CCOCC2CC2)cc1.Cl (centres undefined) [BETAXOLOL HYDROCHLORIDE] : does Population Mitotic Cells (%) equal or exceed 60%?
output: fulfilled

input: Check the entry CC(C)(O)CNc1ncc(-c2ccnc(Nc3ccnc(Cl)c3)n2)c(CC2CC2)n1 : does Population Mitotic Cells (%) equal or exceed 60%?
output: fulfilled

input: Check the entry COc1cccc([C@@H](C)NCCCc2ccccc2Cl)c1.Cl [TECALCET HYDROCHLORIDE] : does Population Mitotic Cells (%) equal or exceed 60%?
output: not fulfilled

input: Check the entry OC1(c2ccc(Cl)cc2)CCN(Cc2c[nH]c3ccccc23)CC1 : does Population Mitotic Cells (%) equal or exceed 60%?
output: fulfilled

input: Check the entry C=CC(=O)Nc1cccc(C(=O)Nc2ccc(Nc3cc(-c4[nH]c(SC)nc4C)ccn3)cc2)c1 : does Population Mitotic Cells (%) equal or exceed 60%?
output: fulfilled

input: Check the entry COc1cc(-n2cnc3cc(-c4ccc(Cl)cc4)sc3c2=O)ccc1OCCN1CCCC1 : does Population Mitotic Cells (%) equal or exceed 60%?
output: not fulfilled
